Active and inactive are the calls of the source.
// endpoint Kd / system Receptor-type tyrosine-protein kinase FLT3 (Homo sapiens); also: in the data inactive means no Kd found up to 30 µM

Lookup: Kd / Receptor-type tyrosine-protein kinase FLT3 (Homo sapiens) / COc1cc(N2CCC(N3CCN(C)CC3)CC2)ccc1Nc1ncnc(Nc2ccccc2S(=O)(=O)C(C)C)n1
0.627 µM (active)

Lookup: Kd / Receptor-type tyrosine-protein kinase FLT3 (Homo sapiens) / COc1ccc(-c2ccc3c(N4CCOC[C@@H]4C)nc(N4CCOC[C@@H]4C)nc3n2)cc1CO
> 30 µM (inactive)

Lookup: Kd / Receptor-type tyrosine-protein kinase FLT3 (Homo sapiens) / CNC(=O)c1ccc(C)c(-n2c(C)cc(OCc3ccc(F)cc3F)c(Br)c2=O)c1
> 30 µM (inactive)

* * *

// endpoint Kd / system Serine/threonine-protein kinase TAO1 (Homo sapiens, UniProt Q7L7X3); also: in the data inactive means no Kd found up to 30 µM
Active and inactive are the calls of the source.

Worked cases, Kd given:
Test Smiles	Kd
COC(=O)N[C@@H](C)CNc1nccc(-c2cn(C(C)C)nc2-c2cc(Cl)cc(NS(C)(=O)=O)c2F)n1	> 30 µM (inactive)
Cc1ccc(-n2nc(C(C)(C)C)cc2NC(=O)NCc2cc(F)ccc2Oc2ccc3c(cnn3CCO)c2)cc1	> 30 µM (inactive)
CC(=O)Nc1cccc(-n2c(=O)n(C3CC3)c(=O)c3c(Nc4ccc(I)cc4F)n(C)c(=O)c(C)c32)c1	> 30 µM (inactive)

Lookup: Kd / Serine/threonine-protein kinase TAO1 (Homo sapiens, UniProt Q7L7X3) / COc1cc(OC)c(/C=C/S(=O)(=O)Cc2ccc(OC)c(NCC(=O)O)c2)c(OC)c1
> 30 µM (inactive)

Lookup: Kd / Serine/threonine-protein kinase TAO1 (Homo sapiens, UniProt Q7L7X3) / C[C@@H](Nc1cc(F)cc(F)c1)c1cc(C(=O)N(C)C)cc2c(=O)cc(N3CCOCC3)oc12
> 30 µM (inactive)

Lookup: Kd / Serine/threonine-protein kinase TAO1 (Homo sapiens, UniProt Q7L7X3) / CCN1CCN(Cc2ccc(-c3cc4c(N[C@H](C)c5ccccc5)ncnc4[nH]3)cc2)CC1
> 30 µM (inactive)

Lookup: Kd / Serine/threonine-protein kinase TAO1 (Homo sapiens, UniProt Q7L7X3) / Cn1ncc(Cl)c1-c1cc(C(=O)N[C@H](CN)Cc2cccc(F)c2)sc1Cl
> 30 µM (inactive)

* * *

# Assay Target: Dual specificity protein kinase CLK4 (Homo sapiens); also: in the data inactive means no Kd found up to 30 µM
# Sequence (Q9HAZ1 whole entry): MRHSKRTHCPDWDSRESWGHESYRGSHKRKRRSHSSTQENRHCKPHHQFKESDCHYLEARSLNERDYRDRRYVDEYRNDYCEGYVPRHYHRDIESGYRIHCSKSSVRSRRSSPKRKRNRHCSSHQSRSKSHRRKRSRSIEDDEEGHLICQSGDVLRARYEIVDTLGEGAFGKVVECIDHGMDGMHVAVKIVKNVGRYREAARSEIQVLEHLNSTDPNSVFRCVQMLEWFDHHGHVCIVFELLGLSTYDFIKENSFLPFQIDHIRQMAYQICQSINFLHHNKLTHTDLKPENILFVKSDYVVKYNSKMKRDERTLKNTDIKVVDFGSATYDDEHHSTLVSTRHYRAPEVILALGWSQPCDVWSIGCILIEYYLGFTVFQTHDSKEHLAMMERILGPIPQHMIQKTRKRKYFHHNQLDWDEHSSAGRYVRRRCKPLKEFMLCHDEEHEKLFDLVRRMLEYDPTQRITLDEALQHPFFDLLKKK
The source made the active and inactive calls.
Lab note: assign the record to one of active, inactive

Consider the following illustrative entries.
Molecule	Assay Target	Qualitative Label
Cn1cc(-c2ccc3nnc(C(F)(F)c4ccc5ncccc5c4)n3n2)cn1	Dual specificity protein kinase CLK4 (Homo sapiens)	inactive
COC(=O)N[C@@H](C)CNc1nccc(-c2cn(C(C)C)nc2-c2cc(Cl)cc(NS(C)(=O)=O)c2F)n1	Dual specificity protein kinase CLK4 (Homo sapiens)	inactive
COc1cc(N2CCC(N3CCN(C)CC3)CC2)ccc1Nc1ncnc(Nc2ccccc2S(=O)(=O)C(C)C)n1	Dual specificity protein kinase CLK4 (Homo sapiens)	inactive

Below: the item to evaluate.
Name the outcome recorded for CCS(=O)(=O)N1CC(CC#N)(n2cc(-c3ncnc4[nH]ccc34)cn2)C1 in the assay.
inactive

* * *

# Assay Target: cGMP-dependent protein kinase 1 (Homo sapiens); also: in the data inactive means no Kd found up to 30 µM
# Sequence (Q13976 whole entry): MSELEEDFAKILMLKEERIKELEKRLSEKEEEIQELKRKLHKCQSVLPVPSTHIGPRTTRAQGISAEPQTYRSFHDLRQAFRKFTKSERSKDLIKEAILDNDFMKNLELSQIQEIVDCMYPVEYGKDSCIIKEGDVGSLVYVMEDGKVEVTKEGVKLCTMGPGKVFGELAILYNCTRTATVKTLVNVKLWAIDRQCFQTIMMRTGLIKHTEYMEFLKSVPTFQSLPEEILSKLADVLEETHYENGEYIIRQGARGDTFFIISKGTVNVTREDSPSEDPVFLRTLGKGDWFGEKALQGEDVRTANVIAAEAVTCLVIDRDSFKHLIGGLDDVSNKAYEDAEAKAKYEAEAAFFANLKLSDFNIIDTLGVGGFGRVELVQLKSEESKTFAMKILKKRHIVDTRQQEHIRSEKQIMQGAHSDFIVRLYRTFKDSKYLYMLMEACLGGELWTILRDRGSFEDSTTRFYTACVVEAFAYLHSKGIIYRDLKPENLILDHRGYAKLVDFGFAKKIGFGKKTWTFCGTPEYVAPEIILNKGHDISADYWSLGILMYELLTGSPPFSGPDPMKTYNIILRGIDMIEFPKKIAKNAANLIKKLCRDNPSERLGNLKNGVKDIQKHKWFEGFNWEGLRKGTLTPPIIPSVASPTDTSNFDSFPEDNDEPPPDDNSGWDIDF
Calls of active or inactive are those of the source.
Lab note: assign the record to one of active, inactive

Compound	Assay Target	Qualitative Label
Cc1cc([C@@H](C)Nc2ccccc2C(=O)O)c2nc(N3CCOCC3)cc(=O)n2c1	cGMP-dependent protein kinase 1 (Homo sapiens)	inactive
O=C(O)[C@]1(Cc2cccc(Nc3nccs3)n2)CC[C@@H](Oc2cccc(Cl)c2F)CC1	cGMP-dependent protein kinase 1 (Homo sapiens)	inactive
CN1CCC(CNc2ccc3ncc(-c4cccc(OC(F)(F)F)c4)n3n2)CC1	cGMP-dependent protein kinase 1 (Homo sapiens)	inactive
CC[C@@H]1C(=O)N(C)c2cnc(Nc3ccc(C(=O)N[C@H]4CC[C@H](N5CCN(CC6CC6)CC5)CC4)cc3OC)nc2N1C(C)C	cGMP-dependent protein kinase 1 (Homo sapiens)	inactive

Name the outcome recorded for CCc1cnn2c(NCc3ccc[n+]([O-])c3)cc(N3CCCC[C@H]3CCO)nc12 in the assay.
inactive

Name the outcome recorded for C[C@@H](Nc1cc(F)cc(F)c1)c1cc(C(=O)N(C)C)cc2c(=O)cc(N3CCOCC3)oc12 in the assay.
inactive

Name the outcome recorded for C[C@@H](c1ccc2nccn2c1)n1nnc2ncc(-c3cnn(C)c3)nc21 in the assay.
inactive

Name the outcome recorded for Cc1ccc(S(=O)(=O)Nc2nc3ccccc3nc2Nc2ccc3nsnc3c2)cc1 in the assay.
inactive

* * *

Active and inactive are the calls of the source.
// endpoint Kd / system Serine/threonine-protein kinase SIK2 (Homo sapiens); also: in the data inactive means no Kd found up to 30 µM

Test Smiles	Assay Target	Kd
Cc1cc(-c2cc(O)ccc2Cl)cc2nnc(Nc3ccc(OCCN4CCCC4)cc3)nc12	Serine/threonine-protein kinase SIK2 (Homo sapiens)	0.002 µM (active)

What does the record list as Kd for CNS(=O)(=O)Nc1nccc(Cc2c(C)c3ccc(Oc4ncccn4)cc3oc2=O)c1F ?
> 30 µM (inactive)

What does the record list as Kd for CCS(=O)(=O)N1CC(CC#N)(n2cc(-c3ncnc4[nH]ccc34)cn2)C1 ?
> 30 µM (inactive)

What does the record list as Kd for C=CC(=O)N1CCC(Oc2cc3c(Nc4ccc(Cl)c(Cl)c4F)ncnc3cc2OC)CC1 ?
> 30 µM (inactive)

* * *

# Assay Target: Casein kinase I isoform alpha (Homo sapiens, UniProt P48729); also: in the data inactive means no Kd found up to 30 µM
# Sequence (P48729 whole entry, canonical isoform): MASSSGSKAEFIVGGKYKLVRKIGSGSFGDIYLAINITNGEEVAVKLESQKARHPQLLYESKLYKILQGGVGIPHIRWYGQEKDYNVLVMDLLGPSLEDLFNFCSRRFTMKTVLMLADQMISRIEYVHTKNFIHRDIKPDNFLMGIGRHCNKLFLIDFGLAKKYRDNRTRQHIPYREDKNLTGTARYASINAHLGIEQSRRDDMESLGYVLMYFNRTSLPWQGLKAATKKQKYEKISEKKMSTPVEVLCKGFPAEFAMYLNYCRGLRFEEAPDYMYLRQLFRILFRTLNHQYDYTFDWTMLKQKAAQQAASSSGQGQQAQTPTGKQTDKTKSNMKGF
Calls of active or inactive are those of the source.
Lab note: assign the record to one of active, inactive

Compound	Qualitative Label
Cc1cc2c(F)c(Oc3ncnn4cc(OC[C@@H](C)OC(=O)[C@H](C)N)c(C)c34)ccc2[nH]1 [BRIVANIB ALANINATE]	inactive
O=C1NC(=O)/C(=C/c2ccc3nccc(-c4ccncc4)c3c2)S1 [GSK-1059615]	inactive
CC(=O)Nc1cccc(-n2c(=O)n(C3CC3)c(=O)c3c(Nc4ccc(I)cc4F)n(C)c(=O)c(C)c32)c1 [TRAMETINIB]	inactive
CN1CCC(COc2cnc(-c3cccc(Cn4nc(-c5cccc(C#N)c5)ccc4=O)c3)nc2)CC1 [TEPOTINIB]	inactive

Name the outcome recorded for Cn1cc(-c2ccc3nnc(C(F)(F)c4ccc5ncccc5c4)n3n2)cn1 [JNJ-38877605] in the assay.
inactive

Name the outcome recorded for CN1N=C(N)c2cn([C@@H]3O[C@H](COP(=O)(O)O)[C@@H](O)[C@H]3O)c3ncnc1c23 [TRICIRIBINE PHOSPHATE] in the assay.
inactive

Name the outcome recorded for CNC(=O)CN1CCC(Oc2cc3c(Nc4cccc(Cl)c4F)ncnc3cc2OC)CC1 [SAPITINIB] in the assay.
inactive

* * *

# Assay Target: Serine/threonine-protein kinase NLK (Homo sapiens, UniProt Q9UBE8); also: in the data inactive means no Kd found up to 30 µM
# Sequence (Q9UBE8 whole entry): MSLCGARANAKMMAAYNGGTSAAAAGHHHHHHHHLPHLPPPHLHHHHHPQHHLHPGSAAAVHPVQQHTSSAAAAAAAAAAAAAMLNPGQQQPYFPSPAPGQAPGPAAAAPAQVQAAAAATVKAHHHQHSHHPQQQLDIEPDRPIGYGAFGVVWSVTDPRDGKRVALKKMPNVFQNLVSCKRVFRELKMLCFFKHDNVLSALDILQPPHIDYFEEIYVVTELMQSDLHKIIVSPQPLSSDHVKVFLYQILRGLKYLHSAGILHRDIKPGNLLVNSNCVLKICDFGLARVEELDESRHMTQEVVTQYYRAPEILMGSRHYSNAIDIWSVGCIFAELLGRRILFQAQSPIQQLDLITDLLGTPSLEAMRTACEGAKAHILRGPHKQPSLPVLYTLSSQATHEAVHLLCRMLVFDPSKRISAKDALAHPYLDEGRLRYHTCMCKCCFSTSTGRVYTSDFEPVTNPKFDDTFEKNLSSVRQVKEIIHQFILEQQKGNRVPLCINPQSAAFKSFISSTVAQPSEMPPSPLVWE
Activity calls are given as the source filed them.
# key: entry, value: Kd

Worked cases, Kd given:
Test Smiles	Assay Target	Kd
CO[C@H]1C[C@@H]2CC[C@@H](C)[C@@](O)(O2)C(=O)C(=O)N2CCCC[C@H]2C(=O)O[C@H]([C@H](C)C[C@@H]2CC[C@@H](OCCO)[C@H](OC)C2)CC(=O)[C@H](C)/C=C(\C)[C@@H](O)[C@@H](OC)C(=O)[C@H](C)C[C@H](C)/C=C/C=C/C=C/1C	Serine/threonine-protein kinase NLK (Homo sapiens, UniProt Q9UBE8)	> 30 µM (inactive)
CNC(=O)c1ccc(C)c(-n2c(C)cc(OCc3ccc(F)cc3F)c(Br)c2=O)c1	Serine/threonine-protein kinase NLK (Homo sapiens, UniProt Q9UBE8)	> 30 µM (inactive)

Below: the item to evaluate.
What does the record list as Kd for O=c1sn(-c2cccc3ccccc23)c(=O)n1Cc1ccccc1 ?
> 30 µM (inactive)

* * *

// endpoint Kd / system Dual specificity mitogen-activated protein kinase kinase 5 (Homo sapiens); also: in the data inactive means no Kd found up to 30 µM
Calls of active or inactive are those of the source.

Worked cases, Kd given:
Test Smiles	Kd
CC[C@H](Nc1ncnc2[nH]cnc12)c1nc2cccc(F)c2c(=O)n1-c1ccccc1	> 30 µM (inactive)
CN(C)C(=O)c1cc2cnc(Nc3ccc(N4CCNCC4)cn3)nc2n1C1CCCC1	> 30 µM (inactive)

Lookup: Kd / Dual specificity mitogen-activated protein kinase kinase 5 (Homo sapiens) / OCCn1cc(-c2cnc3nnn(Cc4ccc5ncccc5c4)c3n2)cn1
> 30 µM (inactive)

Taken from ChEMBL document CHEMBL3991601.
